The following compounds are listed with their measured IC50 values.
# measurement-target: Human plasma kallikrein (Homo sapiens, UniProt P03952)
# Construct: yields a heavy chain (371 amino acids) and a light chain (248 amino acids)
# Sequence (P03952 391-638 limits assumed): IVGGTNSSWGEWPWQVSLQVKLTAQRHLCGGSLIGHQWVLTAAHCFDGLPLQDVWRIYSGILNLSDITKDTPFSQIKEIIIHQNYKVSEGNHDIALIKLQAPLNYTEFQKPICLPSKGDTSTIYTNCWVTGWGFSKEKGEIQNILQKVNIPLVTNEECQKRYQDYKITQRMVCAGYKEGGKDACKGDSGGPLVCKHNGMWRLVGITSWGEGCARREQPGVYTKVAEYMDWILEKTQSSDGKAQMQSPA
# Sequence (P03952 20-390 partner limits assumed): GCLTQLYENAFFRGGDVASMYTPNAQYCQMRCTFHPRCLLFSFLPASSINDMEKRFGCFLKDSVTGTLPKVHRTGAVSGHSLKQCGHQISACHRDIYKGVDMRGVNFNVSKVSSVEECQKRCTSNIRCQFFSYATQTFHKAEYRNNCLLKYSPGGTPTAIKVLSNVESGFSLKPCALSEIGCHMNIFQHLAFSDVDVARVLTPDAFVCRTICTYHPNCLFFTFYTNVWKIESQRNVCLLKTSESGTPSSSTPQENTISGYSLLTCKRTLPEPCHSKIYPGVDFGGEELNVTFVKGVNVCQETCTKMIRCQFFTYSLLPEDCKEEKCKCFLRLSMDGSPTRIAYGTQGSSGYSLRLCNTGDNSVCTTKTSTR
# test-summary: Kallikrein Assay (fluorogenic substrate hydrolysis, AFC release)
# protocol-conditions: purified Human plasma kallikrein 0.5 nM; substrate Acetyl-K—P—R-AFC 100 mM; 50 mM HEPES pH 7.4
# Procedure: The effectiveness of a compound of the present invention as an inhibitor of Kallikrein can be determined using a relevant purified serine protease, and an appropriate synthetic substrate. The rate of hydrolysis of the chromogenic or fluorogenic substrate by the relevant serine protease was measured both in the absence and presence of compounds of the present invention. […] A decrease in the rate of fluorescence change in the presence of inhibitor is indicative of enzyme inhibition. […]
State the value with its unit after it.

# count of solved cases: 3
1. Cc1ccc(C#N)c([C@H]2C[C@@H](NC(=O)c3cnn(C(C)c4cnc(N5C[C@H]6C[C@H]6C5=O)c(C)n4)c3)C2)n1 (single isomer, unassigned) [Example 52] : 10.1 nM
2. Cc1cc([C@@H](C)n2cc(C(=O)N[C@H]3C[C@@H](c4cc(Cl)ccc4C#N)C3)cn2)cnc1N1C[C@H]2C[C@H]2C1=O (single isomer, unassigned) : 0.7 nM
3. Cc1ccc(C#N)c([C@H]2C[C@@H](NC(=O)c3cn(C(C)c4cnc(N5C[C@H]6C[C@H]6C5=O)c(C)c4)nn3)C2)c1 (single isomer, unassigned) [Example 134] : 5.4 nM

Exercise: For the compound Cc1cc(N2C[C@H]3C[C@H]3C2=O)ncc1C(C)n1cc(C(=O)N[C@H]2C[C@@](F)(c3cc(Cl)ccc3C#N)C2)nn1 (single isomer, unassigned) [Example 75] , what IC50 is on record?
Solution: 0.2 nM

Exercise: Follow-up item: Cc1cc(N2C[C@H]3C[C@H]3C2=O)ncc1C(C)n1cc(C(=O)N[C@H]2C[C@@H](c3cc(Cl)ccc3OC(F)F)C2)nn1 (single isomer, unassigned) [Example 69]
Solution: 2790 nM

* * *

# measurement-target: Human plasma kallikrein (Homo sapiens)
# Construct: yields a heavy chain (371 amino acids) and a light chain (248 amino acids)
# test-summary: Kallikrein Assay (fluorogenic substrate hydrolysis, AFC release)
# protocol-conditions: purified Human plasma kallikrein 0.5 nM; substrate Acetyl-K—P—R-AFC 100 mM; 50 mM HEPES pH 7.4
pIC50: −log10 of the molar value.
Use label 1 when the recorded pIC50 is no lower than 8; use label 0 when it is lower.

Exercise: In plain terms: is recorded pIC50 at least 8 for Cc1cc(N2C[C@H]3C[C@H]3C2=O)cnc1C(C)n1cc(C(=O)N[C@H]2C[C@@H](c3cc(Cl)ccc3C#N)C2)nn1 (single isomer, unassigned) [Example 91] ?
Solution: label 1

Exercise: Again, but for Cc1cc(N2C[C@H]3C[C@H]3C2=O)nnc1C(C)n1cc(C(=O)N[C@H]2C[C@@H](c3cc(Cl)ccc3C#N)C2)cn1 (single isomer, unassigned) [Example 53]
Solution: label 1

Exercise: // same read-out, input: Cc1cc(N2C[C@H]3C[C@H]3C2=O)ncc1C(C)n1cc(C(=O)N[C@H]2C[C@@H](c3cc(Cl)ccc3C#N)C2)c(C)n1 (single isomer, unassigned) [Example 19]
Solution: label 1

Exercise: Record: Cc1ccnc([C@H]2C[C@@H](NC(=O)c3cnn(C(C)c4cnc(N5C[C@H]6C[C@H]6C5=O)cc4C)c3)C2)c1 (single isomer, unassigned) [Example 33]
Solution: label 0

Where do these numbers come from? They come from patent US12528786B2.
